# ASSAY TARGET: Alpha-2C adrenergic receptor (Homo sapiens)
# EXPERIMENT DESCRIPTION: compounds altering alpha2C-coupled GIRK flux – cell-based, HEK293 alpha2C/GIRK1/2, thallium flux, primary screen (AID 624);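 also: slope of fluorescence ratio to pre-addition baseline per second over 15 to 24 s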
# ASSAY CONTEXT: thallium flux BTC fluorescence, at 10 µM, actives lie on both sides
Under this convention, satisfied denotes slope strictly below 0.005 and not satisfied denotes slope at or above 0.005.

Solved cases (8 shown):
Hi there! Is slope for CC(C)OCCCNC(=O)c1c(N)n(Cc2cccs2)c2nc3ccccc3nc12 below 0.005, do you know?
satisfied

Hi there! Is slope for CN(C)CCc1nn[nH]n1 below 0.005, do you know?
satisfied

Hi there! Is slope for Cc1oc2ccc(OC(=O)N(C)C)cc2c1C(=O)OC(C)C below 0.005, do you know?
not satisfied

Hi there! Is slope for CC(C)(C)OC(=O)c1c(N)n(Cc2ccco2)c2nc3ccccc3nc12 below 0.005, do you know?
not satisfied

Hi there! Is slope for COc1ccc(C(=O)N2CCCC2=O)cc1 below 0.005, do you know?
satisfied

Hi there! Is slope for CC1(C)CC(n2[nH]c(=O)c3c2NC(=O)CSC3c2ccccc2)CCO1 (configuration not stated) below 0.005, do you know?
not satisfied

Hi there! Is slope for CCOCC(=O)NC1CCSC1=O (configuration not stated) below 0.005, do you know?
not satisfied

Hi there! Is slope for CC(=NCCO)c1c(O)n(C)c(=O)n(C)c1=O below 0.005, do you know?
not satisfied

Next:
Hi there! Is slope for c1ccc2c(c1)OCC(C1=NCCN1)O2 (configuration not stated) below 0.005, do you know?
not satisfied

Hi there! Is slope for O=C(c1sc2ccccc2c1Cl)N1CCC2(CC1)OCCO2 below 0.005, do you know?
satisfied

----------
# EXPERIMENT DESCRIPTION: Primary imaging screen for DUSP6 inhibitors that restore phospho-Erk in transfected HeLa cells, chemical complementation (AID 609)
# ASSAY CONTEXT: HeLa MKP-3 transfected, phospho-Erk imaging KS statistic; measured here: nuclear c-Myc green intensity z-score; at 10 µM
Item-by-item account of z-score
Answer with a bare number; do not write a unit.

Here's what some known entries look like.
Please report the recorded z-score for C=CCn1c(O)c(C=Nc2ccc(N(CC)CC)cc2)c(=O)[nH]c1=O .
0.816

Please report the recorded z-score for O=C1c2ccccc2C(=O)N1Cc1nc2ccccc2c(=O)n1-c1cccnc1 .
-0.21

Next:
Please report the recorded z-score for CCCSP1(=S)NCCCO1 (configuration not stated) .
-0.499

Please report the recorded z-score for Nc1c(C(=O)NCc2ccco2)c2nc3ccccc3nc2n1Cc1ccc(F)cc1 .
1.06

Please report the recorded z-score for CC(=O)OC1N=C(c2ccccc2)c2ccccc2NC1=O (configuration not stated) .
-1.27

Please report the recorded z-score for Cc1ccc(-n2c(O)c(C=NCCN3CCOCC3)c(=O)[nH]c2=O)cc1 .
-1.16

Please report the recorded z-score for O=c1[nH]c(=O)n(Cc2ccco2)c(O)c1C=NCCCn1ccnc1 .
-0.867

Please report the recorded z-score for CN(C)CCc1nn[nH]n1 .
0.458

Please report the recorded z-score for CCC(COC(=O)c1cc(OC)c(OC)c(OC)c1)(c1ccccc1)N(C)C (configuration not stated) .
0.437

Please report the recorded z-score for CCn1c(O)c(C(=O)CC2NCCc3ccccc32)c(=O)n(CC)c1=S (configuration not stated) .
-1.07

Please report the recorded z-score for CC(=NCCO)c1c(O)n(C)c(=O)n(C)c1=O .
-1.46

Please report the recorded z-score for O=c1[nH]c(O)c(C=NC2CCN(Cc3ccccc3)CC2)c(=O)[nH]1 .
-1.34
